Numbers sourced from ChEMBL document CHEMBL6087486.

Hi there, I'd appreciate the recorded clearance for every entry that follows.
# test details: Clearance in ICR mouse at 2 mg/kg, iv measured upto 24 hrs by LC-MS/MS analysis
# Type: ADME, organism-based
# condition parameters: in vivo

mol smiles: C#CCCCN1/C(=C/C=C2\CCCC(/C=C/C3=[N+](CCCc4cn(CCOCCOCCOCCOCCC(=O)N5CCN(CCCN(C)c6ccc7nccc(C(=O)NCC(=O)N8CC(F)(F)C[C@H]8C#N)c7c6)CC5)nn4)c4ccccc4C3(C)C)=C2Cl)C(C)(C)c2ccccc21
readout: clearance
result: 204 mL/min/kg

For this molecule ( CN(CCCN1CCN(C(=O)CCOCCOCCOCCOCCn2cc(CCCN3/C(=C/C=C4\CCCC(/C=C/C5=[N+](CCCc6cn(CCOCCOCCOCCOCCC(=O)N7CCN(CCCN(C)c8ccc9nccc(C(=O)NCC(=O)N%10CC(F)(F)C[C@H]%10C#N)c9c8)CC7)nn6)c6ccccc6C5(C)C)=C4Cl)C(C)(C)c4ccccc43)nn2)CC1)c1ccc2nccc(C(=O)NCC(=O)N3CC(F)(F)C[C@H]3C#N)c2c1 ), measured clearance is 9 mL/min/kg
